target: human OMPDC (Homo sapiens, UniProt P11172); construct: Overexpression of human OMPDC in Escherichia coli; made in house; host or cells: Escherichia coli; experiment: Thermodynamic ITC ligand binding to human OMPDC wild-type; conditions: ITC at 25 °C, 20 mM HEPES pH 7.4, wild-type, single dissociation constant; read-out: K D
Sequence (P11172 221-480 limits assumed): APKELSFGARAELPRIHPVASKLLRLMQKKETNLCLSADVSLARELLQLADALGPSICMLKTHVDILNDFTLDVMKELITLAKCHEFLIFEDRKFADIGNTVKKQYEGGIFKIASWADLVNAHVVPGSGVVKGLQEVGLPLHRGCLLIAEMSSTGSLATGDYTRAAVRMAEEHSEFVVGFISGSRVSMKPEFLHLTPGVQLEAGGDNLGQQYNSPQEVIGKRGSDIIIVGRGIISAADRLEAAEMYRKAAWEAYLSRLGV
measured_property: Kd (µM)
Only the number, expressed in µM, is required.

// Kd value for Cc1cn([C@H]2C[C@H](O)[C@@H](COP(=O)(O)O)O2)c(=O)[nH]c1=O [dTMP, thymidine-5′-monophosphate] : 119

* * *

biological target: human OMPDC (Homo sapiens); construct: Overexpression of human OMPDC in Escherichia coli; made in house; host or cells: Escherichia coli; experiment: Thermodynamic ITC ligand binding to human OMPDC wild-type; conditions: ITC at 25 °C, wild-type, single dissociation constant; read-out: Dissociation constant (KD)
measured_property: pKd
Just so you know, pKd here is -log10 of the concentration in molar units; reply with that number alone.

// pKd value for Cc1cn([C@H]2C[C@H](O)[C@@H](COP(=O)(O)O)O2)c(=O)[nH]c1=O [dTMP, thymidine-5′-monophosphate] : 3.93
